- testTarget: Epac2^Δ280 (Mus musculus)
- Construct: made in house
- Sequence (Q9EQZ6 299-1011, stated change not applied): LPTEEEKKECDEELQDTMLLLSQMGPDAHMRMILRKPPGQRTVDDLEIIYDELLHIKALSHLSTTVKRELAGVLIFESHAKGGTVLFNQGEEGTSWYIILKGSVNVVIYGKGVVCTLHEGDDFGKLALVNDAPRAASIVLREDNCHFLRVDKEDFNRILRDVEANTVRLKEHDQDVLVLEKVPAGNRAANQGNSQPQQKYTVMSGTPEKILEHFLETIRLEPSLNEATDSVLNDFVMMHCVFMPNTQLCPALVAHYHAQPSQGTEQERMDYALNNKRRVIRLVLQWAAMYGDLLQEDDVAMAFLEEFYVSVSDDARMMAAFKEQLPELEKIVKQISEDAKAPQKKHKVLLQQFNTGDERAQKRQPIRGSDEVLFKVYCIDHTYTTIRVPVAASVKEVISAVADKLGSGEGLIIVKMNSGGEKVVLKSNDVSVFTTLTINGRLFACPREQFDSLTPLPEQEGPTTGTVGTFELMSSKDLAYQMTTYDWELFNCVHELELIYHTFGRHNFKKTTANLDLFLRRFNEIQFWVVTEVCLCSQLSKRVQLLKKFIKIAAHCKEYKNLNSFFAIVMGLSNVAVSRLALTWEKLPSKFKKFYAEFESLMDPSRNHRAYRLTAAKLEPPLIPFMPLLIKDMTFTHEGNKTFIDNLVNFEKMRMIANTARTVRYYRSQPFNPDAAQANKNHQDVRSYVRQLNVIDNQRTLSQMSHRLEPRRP
- procedureDetails: Epac activation assay (Rap1B•mGDP fluorescence nucleotide exchange), Epac2^Δ280
- Format: biochemical
- setupConditions: 0.7 μM compound
For each entry below, report its kobs value.
Answer in s⁻¹, number only, no unit symbol.

Q: Form: Entry = Nc1ncnc2c1nc(SCc1ccccc1)n2[C@@H]1O[C@@H]2CO[P@](O)(=S)O[C@H]2[C@H]1O [S-220, Sp-8-BnT-cAMPS] | System = Epac2^Δ280 (Mus musculus) | kobs = ____
Ans: 0.00188

Q: Form: Entry = Nc1ncnc2c1ncn2C1OC2COP(O)(=S)OC2C1O (stereo not shown) [S-000, Sp-cAMPS] | System = Epac2^Δ280 (Mus musculus) | kobs = ____
Ans: 0.000159

Q: Form: Entry = Nc1ncnc2c1ncn2[C@@H]1O[C@@H]2COP(=O)(O)O[C@H]2[C@H]1O [cAMP, reference compound] | System = Epac2^Δ280 (Mus musculus) | kobs = ____
Ans: 0.000125

Q: Form: Entry = Cc1ccc(CSc2nc3c(N)ncnc3n2[C@@H]2O[C@@H]3CO[P@](O)(=S)O[C@H]3[C@H]2O)cc1 [S-230, Sp-8-pMeBnT-cAMPS] | System = Epac2^Δ280 (Mus musculus) | kobs = ____
Ans: 0.000484

###

For each entry below, report its kobs value.
- testTarget: Epac2^fl (Mus musculus)
- Sequence (Q9EQZ6 1-993 isoform Q9EQZ6-3): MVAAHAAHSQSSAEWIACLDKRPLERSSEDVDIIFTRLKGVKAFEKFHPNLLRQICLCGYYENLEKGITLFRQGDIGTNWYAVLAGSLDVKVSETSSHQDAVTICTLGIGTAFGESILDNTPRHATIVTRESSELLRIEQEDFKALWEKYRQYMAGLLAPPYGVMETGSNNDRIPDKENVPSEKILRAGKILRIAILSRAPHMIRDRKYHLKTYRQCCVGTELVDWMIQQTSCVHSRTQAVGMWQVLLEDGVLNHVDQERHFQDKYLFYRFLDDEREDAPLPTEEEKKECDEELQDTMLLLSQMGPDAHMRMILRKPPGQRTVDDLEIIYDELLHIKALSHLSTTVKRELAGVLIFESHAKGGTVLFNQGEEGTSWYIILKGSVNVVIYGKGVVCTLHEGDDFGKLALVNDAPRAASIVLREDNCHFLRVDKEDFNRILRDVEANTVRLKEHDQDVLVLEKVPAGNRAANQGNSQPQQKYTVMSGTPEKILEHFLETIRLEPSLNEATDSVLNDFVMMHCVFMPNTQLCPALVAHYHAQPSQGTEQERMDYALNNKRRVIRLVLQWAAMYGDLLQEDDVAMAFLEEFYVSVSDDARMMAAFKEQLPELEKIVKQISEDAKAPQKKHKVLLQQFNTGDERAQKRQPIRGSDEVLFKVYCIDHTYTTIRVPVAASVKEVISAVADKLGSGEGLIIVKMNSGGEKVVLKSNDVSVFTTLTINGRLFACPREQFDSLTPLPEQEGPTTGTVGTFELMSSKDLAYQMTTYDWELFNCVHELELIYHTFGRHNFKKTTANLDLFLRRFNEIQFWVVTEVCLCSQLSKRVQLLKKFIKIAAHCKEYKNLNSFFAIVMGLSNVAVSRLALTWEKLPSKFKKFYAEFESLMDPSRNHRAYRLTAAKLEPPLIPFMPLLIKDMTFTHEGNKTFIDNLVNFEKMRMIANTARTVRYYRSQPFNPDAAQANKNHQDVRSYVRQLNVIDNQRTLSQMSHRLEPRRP
- procedureDetails: Epac activation assay, full length Epac2
- Type: biochemical
- Set-up: made in house
- setupConditions: 70 μM compound
- Description: Murine Epac2 was used as all previous structural studies were performed with it. The activity of Epac was determined by a fluorescence assay. […] The fluorescence intensity of Rap1B•mGDP is approximately twice that of free mGDP, and thus, nucleotide exchange can be observed as a decay in fluorescence upon the addition of excess unlabeled GDP.
// unit must come after the numeric part

Q: State the recorded kobs for this entry: COC1C2OP(=O)(O)OCC2OC1n1c(Sc2ccc(Cl)cc2)nc2c(N)ncnc21 [D-007, 8-pCPT-2′-O-Me-cAMP, reference compound]
Ans: 8.92e-05 s⁻¹

Q: State the recorded kobs for this entry: Nc1ncnc2c1nc(SCc1ccccc1)n2[C@@H]1O[C@@H]2CO[P@](O)(=S)O[C@H]2[C@H]1O [S-220, Sp-8-BnT-cAMPS]
Ans: 0.00155 s⁻¹

Q: State the recorded kobs for this entry: Nc1ncnc2c1ncn2[C@@H]1O[C@@H]2COP(=O)(O)O[C@H]2[C@H]1O [cAMP, reference compound]
Ans: 0.000198 s⁻¹

Q: State the recorded kobs for this entry: Cc1ccc(CSc2nc3c(N)ncnc3n2[C@@H]2O[C@@H]3CO[P@](O)(=S)O[C@H]3[C@H]2O)cc1 [S-230, Sp-8-pMeBnT-cAMPS]
Ans: 0.00055 s⁻¹

###

For each entry below, report its A (PKA activity) value.
- testTarget: PKA-Iβ (Homo sapiens)
- Construct: made in house
- Sequence (P31321 whole entry): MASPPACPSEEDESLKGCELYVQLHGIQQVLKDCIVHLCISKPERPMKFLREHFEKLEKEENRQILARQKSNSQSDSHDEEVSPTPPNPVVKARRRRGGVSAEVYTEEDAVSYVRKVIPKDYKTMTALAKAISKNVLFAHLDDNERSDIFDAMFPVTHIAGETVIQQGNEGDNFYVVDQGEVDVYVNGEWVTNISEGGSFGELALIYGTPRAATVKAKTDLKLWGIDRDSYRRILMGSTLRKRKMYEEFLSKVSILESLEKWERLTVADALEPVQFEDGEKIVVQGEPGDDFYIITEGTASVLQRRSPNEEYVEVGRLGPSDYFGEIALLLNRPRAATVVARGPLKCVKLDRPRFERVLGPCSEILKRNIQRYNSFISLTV
- procedureDetails: PKA activity assay, PKA-Iβ
- Type: biochemical
- setupConditions: PKAIβ; concentration 1.00E-03 μM
Answer in U/mg, number only, no unit symbol.

Q: State the recorded A (PKA activity) for this entry: Cc1ccc(CSc2nc3c(N)ncnc3n2[C@@H]2O[C@@H]3CO[P@](O)(=S)O[C@H]3[C@H]2O)cc1
Ans: 4.71

Q: State the recorded A (PKA activity) for this entry: Nc1ncnc2c1ncn2[C@@H]1O[C@@H]2COP(=O)(O)O[C@H]2[C@H]1O [cAMP, reference compound]
Ans: 2.9

Q: State the recorded A (PKA activity) for this entry: Nc1ncnc2c1nc(SCc1ccccc1)n2[C@@H]1O[C@@H]2CO[P@](O)(=S)O[C@H]2[C@H]1O
Ans: 4.35

Q: State the recorded A (PKA activity) for this entry: COC1C2OP(=O)(O)OCC2OC1n1c(Sc2ccc(Cl)cc2)nc2c(N)ncnc21 [D-007, 8-pCPT-2′-O-Me-cAMP, reference compound]
Ans: 4.7
